binding signal listing for selected sequences.
- experimental-system: GST-Nv-NF-kB (Ser allele) (Nematostella vectensis, UniProt A7UNT2 2-411)
- Sequence: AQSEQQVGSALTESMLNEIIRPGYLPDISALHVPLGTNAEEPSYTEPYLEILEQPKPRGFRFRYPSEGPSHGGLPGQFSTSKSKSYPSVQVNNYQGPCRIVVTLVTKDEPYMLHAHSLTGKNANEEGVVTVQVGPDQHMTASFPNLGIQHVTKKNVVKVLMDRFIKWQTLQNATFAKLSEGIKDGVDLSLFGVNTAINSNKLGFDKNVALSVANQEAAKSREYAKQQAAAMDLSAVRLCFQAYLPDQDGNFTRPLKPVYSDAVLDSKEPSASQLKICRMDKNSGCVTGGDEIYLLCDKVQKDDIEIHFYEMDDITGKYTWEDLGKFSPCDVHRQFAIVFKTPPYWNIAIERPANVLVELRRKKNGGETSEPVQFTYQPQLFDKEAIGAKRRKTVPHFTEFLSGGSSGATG
- protocol: protein-binding microarray (PBM); PBM: ~300 nM protein, 6 mM HEPES pH 7.8, 80 mM KCl, 0.5 mM EDTA, 0.5 mM EGTA, 6% glycerol, 35 ng/ul poly-dIdC, 1% milk, 1 h, room temperature; high values mean tight binding
- protocol-conditions: dsDNA, one strand shown
Your reply should be a number followed by the unit it is expressed in.

CCGATTAACATCACCCCGCCCCCTGATGTTAATCGGGTCTTGATTCGCTTGACGCTGCTG :: 3.65 z-score

Which measured binding signal value corresponds to `CCGATTAACATCAGGGGTAGGTTTGATGTTAATCGGGTCTTGATTCGCTTGACGCTGCTG` ?
1.33 z-score

Which measured binding signal value corresponds to `CCGATTAACATCAGGAGTTTCCCTGATGTTAATCGGGTCTTGATTCGCTTGACGCTGCTG` ?
4.67 z-score

Which measured binding signal value corresponds to `CCGATTAACATCAGGAAACTACCTGATGTTAATCGGGTCTTGATTCGCTTGACGCTGCTG` ?
3.83 z-score

Which measured binding signal value corresponds to `CCGATTAACATCACATGGGAAACTGATGTTAATCGGGTCTTGATTCGCTTGACGCTGCTG` ?
2.7 z-score

Which measured binding signal value corresponds to `CCGATTAACATCAAGGGAATCCCTGATGTTAATCGGGTCTTGATTCGCTTGACGCTGCTG` ?
5.4 z-score

Which measured binding signal value corresponds to `CCGATTAACATCAGGACTTCCCATGATGTTAATCGGGTCTTGATTCGCTTGACGCTGCTG` ?
1.03 z-score

Which measured binding signal value corresponds to `CCGATTAACATCAGTTGTCCCGCTGATGTTAATCGGGTCTTGATTCGCTTGACGCTGCTG` ?
1.42 z-score

Which measured binding signal value corresponds to `CCGATTAACATCAGAGAAACCCCTGATGTTAATCGGGTCTTGATTCGCTTGACGCTGCTG` ?
4.24 z-score

====

binding signal listing for selected sequences.
- experimental-system: GST-Nv-NF-kB (Ser allele) (Nematostella vectensis, UniProt A7UNT2 2-411)
- Sequence: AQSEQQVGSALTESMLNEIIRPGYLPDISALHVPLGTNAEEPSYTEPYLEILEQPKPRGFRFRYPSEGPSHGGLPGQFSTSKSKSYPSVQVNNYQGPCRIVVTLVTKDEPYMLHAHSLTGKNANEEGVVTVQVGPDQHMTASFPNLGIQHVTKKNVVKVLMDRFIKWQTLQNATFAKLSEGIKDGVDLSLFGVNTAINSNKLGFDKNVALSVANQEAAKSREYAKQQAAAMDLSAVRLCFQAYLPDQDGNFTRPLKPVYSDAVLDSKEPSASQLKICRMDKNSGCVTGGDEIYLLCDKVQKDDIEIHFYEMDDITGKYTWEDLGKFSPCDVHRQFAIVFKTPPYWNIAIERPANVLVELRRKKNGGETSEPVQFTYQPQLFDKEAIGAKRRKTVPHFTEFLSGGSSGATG
- protocol: protein-binding microarray (PBM); PBM: ~300 nM protein, 6 mM HEPES pH 7.8, 80 mM KCl, 0.5 mM EDTA, 0.5 mM EGTA, 6% glycerol, 35 ng/ul poly-dIdC, 1% milk, 1 h, room temperature; high values mean tight binding
- protocol-conditions: dsDNA, one strand shown
Number only, in z-score; omit the unit.

Take a look at these entries with their results.
CCGATTAACATCAAGGGTTTTCCTGATGTTAATCGGGTCTTGATTCGCTTGACGCTGCTG :: 2.41
CCGATTAACATCAAACAAACCCCTGATGTTAATCGGGTCTTGATTCGCTTGACGCTGCTG :: 2.48
CCGATTAACATCACGGAGTTCCCTGATGTTAATCGGGTCTTGATTCGCTTGACGCTGCTG :: 1.77

Which measured binding signal value corresponds to `CCGATTAACATCAGAACCCCCCCTGATGTTAATCGGGTCTTGATTCGCTTGACGCTGCTG` ?
5.04

Which measured binding signal value corresponds to `CCGATTAACATCAAAATTCCCAATGATGTTAATCGGGTCTTGATTCGCTTGACGCTGCTG` ?
4.95

====

- experimental-system: GST-Hu-p50 (Homo sapiens, UniProt P19838 7-356)
- Sequence (P19838 7-356): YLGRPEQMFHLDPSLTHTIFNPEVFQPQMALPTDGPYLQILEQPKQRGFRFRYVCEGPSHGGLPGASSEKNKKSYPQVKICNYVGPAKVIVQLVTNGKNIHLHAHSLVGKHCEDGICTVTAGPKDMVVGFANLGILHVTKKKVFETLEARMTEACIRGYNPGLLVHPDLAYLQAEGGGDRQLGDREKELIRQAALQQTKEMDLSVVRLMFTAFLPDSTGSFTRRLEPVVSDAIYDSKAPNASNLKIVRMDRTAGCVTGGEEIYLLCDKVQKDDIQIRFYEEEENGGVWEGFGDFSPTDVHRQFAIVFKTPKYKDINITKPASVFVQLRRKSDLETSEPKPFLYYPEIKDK
- protocol: protein-binding microarray (PBM); PBM: ~300 nM protein, 6 mM HEPES pH 7.8, 80 mM KCl, 0.5 mM EDTA, 0.5 mM EGTA, 6% glycerol, 35 ng/ul poly-dIdC, 1% milk, 1 h, room temperature; high values mean tight binding
- protocol-conditions: dsDNA, one strand shown
binding signal listing for selected sequences.
Number only, in z-score; omit the unit.

Take a look at these entries with their results.
CCGATTAACATCAAGGAAAAACCTGATGTTAATCGGGTCTTGATTCGCTTGACGCTGCTG :: 1.12
CCGATTAACATCAAAAAACCGTTTGATGTTAATCGGGTCTTGATTCGCTTGACGCTGCTG :: 1.52
CCGATTAACATCACGGAATTTTCTGATGTTAATCGGGTCTTGATTCGCTTGACGCTGCTG :: 1.13

Which measured binding signal value corresponds to `CCGATTAACATCAGGAATTACCATGATGTTAATCGGGTCTTGATTCGCTTGACGCTGCTG` ?
2.05

Which measured binding signal value corresponds to `CCGATTAACATCAGATTCTCCCCTGATGTTAATCGGGTCTTGATTCGCTTGACGCTGCTG` ?
4.4

Which measured binding signal value corresponds to `CCGATTAACATCAGGGGAGTTAATGATGTTAATCGGGTCTTGATTCGCTTGACGCTGCTG` ?
3.74

Which measured binding signal value corresponds to `CCGATTAACATCAGGCATTTCCCTGATGTTAATCGGGTCTTGATTCGCTTGACGCTGCTG` ?
3.68

Which measured binding signal value corresponds to `CCGATTAACATCAGGCGGTAAGGTGATGTTAATCGGGTCTTGATTCGCTTGACGCTGCTG` ?
1.29

Which measured binding signal value corresponds to `CCGATTAACATCAGAAATGGGAATGATGTTAATCGGGTCTTGATTCGCTTGACGCTGCTG` ?
1.72

Which measured binding signal value corresponds to `CCGATTAACATCACCCGGGAAAATGATGTTAATCGGGTCTTGATTCGCTTGACGCTGCTG` ?
3.07

Which measured binding signal value corresponds to `CCGATTAACATCAGAAAATGCCCTGATGTTAATCGGGTCTTGATTCGCTTGACGCTGCTG` ?
2.79

Which measured binding signal value corresponds to `CCGATTAACATCAAGCAACCCCCTGATGTTAATCGGGTCTTGATTCGCTTGACGCTGCTG` ?
4.45

Which measured binding signal value corresponds to `CCGATTAACATCAGGGGGGGTGATGATGTTAATCGGGTCTTGATTCGCTTGACGCTGCTG` ?
4.13

====

- experimental-system: GST-Nv-NF-kB (Ser allele) (Nematostella vectensis, UniProt A7UNT2 2-411)
- Sequence: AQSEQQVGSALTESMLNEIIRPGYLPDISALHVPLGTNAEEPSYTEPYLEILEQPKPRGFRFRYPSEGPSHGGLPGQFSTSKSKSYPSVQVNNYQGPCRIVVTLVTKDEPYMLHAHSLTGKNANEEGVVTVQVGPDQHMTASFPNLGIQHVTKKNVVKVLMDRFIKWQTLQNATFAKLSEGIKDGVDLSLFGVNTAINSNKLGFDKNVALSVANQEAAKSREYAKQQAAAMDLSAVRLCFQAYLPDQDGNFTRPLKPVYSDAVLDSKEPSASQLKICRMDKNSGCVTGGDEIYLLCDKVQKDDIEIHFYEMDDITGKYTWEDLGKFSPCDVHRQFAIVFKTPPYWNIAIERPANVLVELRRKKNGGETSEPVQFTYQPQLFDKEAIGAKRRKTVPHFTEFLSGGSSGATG
- protocol: protein-binding microarray (PBM); PBM: ~300 nM protein, 6 mM HEPES pH 7.8, 80 mM KCl, 0.5 mM EDTA, 0.5 mM EGTA, 6% glycerol, 35 ng/ul poly-dIdC, 1% milk, 1 h, room temperature; Ap Aiptasia and Nv Nematostella (sea anemones) / Co Capsaspora / Aq Amphimedon (sponge) / Dm Drosophila / Hu human; RHD is the Rel homology domain; high values mean tight binding
- protocol-conditions: dsDNA, one strand shown
measured-endpoint: binding signal

CCGATTAACATCAGGGGGATAGATGATGTTAATCGGGTCTTGATTCGCTTGACGCTGCTG :: 4.13 z-score
CCGATTAACATCAAAAATTGCCCTGATGTTAATCGGGTCTTGATTCGCTTGACGCTGCTG :: 2.01 z-score
CCGATTAACATCACCCAACCCCCTGATGTTAATCGGGTCTTGATTCGCTTGACGCTGCTG :: 3.73 z-score
CCGATTAACATCACGGAAACCCCTGATGTTAATCGGGTCTTGATTCGCTTGACGCTGCTG :: 3.87 z-score
CCGATTAACATCAAAATGCCCCCTGATGTTAATCGGGTCTTGATTCGCTTGACGCTGCTG :: 4.81 z-score

Which measured binding signal value corresponds to `CCGATTAACATCAGGGGAAGGACTGATGTTAATCGGGTCTTGATTCGCTTGACGCTGCTG` ?
5.04 z-score

Which measured binding signal value corresponds to `CCGATTAACATCAGGGGACCCCCTGATGTTAATCGGGTCTTGATTCGCTTGACGCTGCTG` ?
5.69 z-score

Which measured binding signal value corresponds to `CCGATTAACATCAGGGGGGTACATGATGTTAATCGGGTCTTGATTCGCTTGACGCTGCTG` ?
3.54 z-score

Which measured binding signal value corresponds to `CCGATTAACATCATGATGGGAAATGATGTTAATCGGGTCTTGATTCGCTTGACGCTGCTG` ?
1.98 z-score
